Tested on: IGROV1 ovarian
Assay: NCI tumour cell line growth inhibition, 48 h
observed-property: TGI

Find the recorded TGI belonging to Cc1csc2nc(-c3ccncc3)cn12 and report it.
> 100 µM

Find the recorded TGI belonging to COC(=O)C1[C@@H](C(=O)OC)C(=O)O[C@H]1c1cc(OC)c(OC)c(OC)c1 (stereo not given in full) and report it.
> 100 µM

Find the recorded TGI belonging to COc1ccc(C(=S)N(C)NC(=O)CC(=O)NN(C)C(=S)c2ccc(OC)cc2)cc1 and report it.
> 100 µM

Find the recorded TGI belonging to CCCCCCCCCCCC[C@@H](O)[C@H]1CC[C@H]([C@H]2CC[C@H]([C@H](O)CC[C@H](O)CCCCCCCC3=C[C@H](C)OC3=O)O2)O1 and report it.
3.2 µM

Find the recorded TGI belonging to Cc1nc2cc(-c3nn(C(C)C)c4ncnc(N)c34)ccc2o1 and report it.
0.0559 µM

----------
Tested on: SK-MEL-5 melanoma
Assay: NCI tumour cell line growth inhibition, 48 h
Where a SMILES comes first, the peptide text is derived from it.
observed-property: TGI

Please state recorded TGI (tested on SK-MEL-5 melanoma) of COc1cc2nn(-c3ccccc3)nc2c2nonc12
> 100 µM

Please state recorded TGI (tested on SK-MEL-5 melanoma) of Cc1ccc(S(=O)(=O)C(CC(NC=O)S(=O)(=O)c2ccc(C)cc2)NC=O)cc1 (stereo not given)
> 100 µM

Please state recorded TGI (tested on SK-MEL-5 melanoma) of Nc1c(C(=O)c2cccc(OC[C@@H](O)CO)c2)cnn1-c1ccc(F)cc1
> 25 µM

Please state recorded TGI (tested on SK-MEL-5 melanoma) of N#CC(C#N)=C1NN=C(Cl)c2ccccc21
> 100 µM

Please state recorded TGI (tested on SK-MEL-5 melanoma) of CCOC(=O)[C@H]1Nc2ccc(Cl)cc2[C@H]2CCC[C@@H]12
> 100 µM

Please state recorded TGI (tested on SK-MEL-5 melanoma) of COc1cc(-c2nc3ccc(N4CCN(C)CC4)cc3[nH]2)c(OC)c2[nH]c(CO)nc12
> 100 µM

Please state recorded TGI (tested on SK-MEL-5 melanoma) of COC(=O)/C=C\[C@H]1[C@H](C)N1S(=O)(=O)c1ccc(C)cc1 (stereo not given in full)
> 100 µM

Please state recorded TGI (tested on SK-MEL-5 melanoma) of c1ccc2c(c1)Oc1cccc3cccc-2c13
> 100 µM

Please state recorded TGI (tested on SK-MEL-5 melanoma) of CC1(C)CC[C@]2(C(=O)Nc3ccccn3)CC[C@]3(C)C(=CC[C@@H]4[C@@]5(C)C/C(=C/c6ccncc6)C(=O)C(C)(C)[C@@H]5CC[C@]43C)[C@@H]2C1
3.1 µM

Please state recorded TGI (tested on SK-MEL-5 melanoma) of Cc1csc2nc(-c3ccncc3)cn12
> 100 µM

Please state recorded TGI (tested on SK-MEL-5 melanoma) of O=C(NC(Cc1ccc(I)cc1)C(=O)O)c1cccc(Br)c1 (stereo not given)
> 100 µM

Please state recorded TGI (tested on SK-MEL-5 melanoma) of CCC(C)C(NC(=O)C(NC(=O)C(CC(N)=O)NC(=O)CN)C(C)O)C(=O)NC(C(=O)NC(C)C(=O)NC(C(=O)NC(CCC(=O)O)C(=O)NC(CC(C)C)C(=O)NC(CC(=O)O)C(=O)NC(C(=O)NC(Cc1ccc(O)cc1)C(=O)N1CCCC1C(=O)O)C(C)O)C(C)C)C(C)C (stereo not given) (H-GNTIVAVELDTYP-OH; configuration not given here)
> 50 µM

Please state recorded TGI (tested on SK-MEL-5 melanoma) of COc1ccc(/C=N/N/C(O)=c2/sc(=C(C#N)C#N)n(-c3ccccc3)c2=N)cc1
> 100 µM

Please state recorded TGI (tested on SK-MEL-5 melanoma) of CCCCNC(=O)c1cc(S(=O)(=O)n2cc[nH]c2=O)c(SC)cc1Cl
> 100 µM

Please state recorded TGI (tested on SK-MEL-5 melanoma) of CCCCCCN1CCc2c(C)c(C#N)c3nc4ccccc4n3c21
> 100 µM

Please state recorded TGI (tested on SK-MEL-5 melanoma) of CCOc1ccc(NC(=O)/C(=C\c2ccc(C)cc2)C(C)=O)cc1
> 100 µM

Please state recorded TGI (tested on SK-MEL-5 melanoma) of S=C(S)N1CCCCC1
81.5 µM

Please state recorded TGI (tested on SK-MEL-5 melanoma) of CSc1cc(-c2cc3ccccc3o2)oc(=O)c1C#N
> 100 µM

Please state recorded TGI (tested on SK-MEL-5 melanoma) of CCn1c2ccccc2c2cc(N=Nc3ccc(C#N)cc3)ccc21
> 100 µM

Please state recorded TGI (tested on SK-MEL-5 melanoma) of O=c1c(=O)c2cscc2c1=O
7.89 µM

----------
Tested on: SF-295 CNS
Experiment: NCI tumour cell line growth inhibition, 48 h; in the data active = GI50 below about 0.43 µM; inactive = the rest
Pick one and only one: active, inactive

Any idea what this test logged for Cc1cc(Cl)ccc1OCc1nn2c(CCCCc3nnc4sc(COc5ccc(Cl)cc5C)nn34)nnc2s1 ?
inactive

Any idea what this test logged for CC(C)N(CCCNC(=O)Nc1ccc(C(C)(C)C)cc1)C[C@H]1O[C@@H](n2ccc3c(N)ncnc32)[C@H](O)[C@@H]1O ?
inactive

Any idea what this test logged for C=[CH][Sn]([CH]=C)([S]c1cccc2cccnc12)[S]c1cccc2cccnc12 ?
inactive

Any idea what this test logged for [2H]c1nc(C)nc([2H])c1-c1cc(NC[C@@H](C)c2cccc3c(C(=O)NC)ccnc23)ncn1 ?
inactive

Any idea what this test logged for COc1ccc(C(=O)c2sc3nc4c(cc3c2N)CCCC4)cc1OC ?
inactive

Any idea what this test logged for c1ccc(CC(Cc2ccccc2)C2=NCCCN2)cc1 ?
inactive

Any idea what this test logged for Cc1cc2cn3c4ccc(O)cc4nc(N)c3c2cc1C ?
active

Any idea what this test logged for Cc1nc2cc(-c3nn(C(C)C)c4ncnc(N)c34)ccc2o1 ?
active

Any idea what this test logged for COc1cc(/C=C/C(=O)c2ccccc2)cc(OC)c1OC ?
inactive

----------
Tested on: MDA-MB-231 breast
Assay: NCI tumour cell line growth inhibition, 48 h; in the data active = GI50 below about 0.43 µM; inactive = the rest
Pick one and only one: active, inactive

Any idea what this test logged for Cc1nc2cc(-c3nn(C(C)C)c4ncnc(N)c34)ccc2o1 ?
active

Any idea what this test logged for Cn1ccc2c1SSSSS2 ?
inactive

Any idea what this test logged for CCCN1C/C(=C\c2ccc(O)c(OC)c2)C(=O)/C(=C/c2ccc(O)c(OC)c2)C1 ?
inactive

Any idea what this test logged for NCCCCCn1c2c(c3ccccc3c1=O)C(=O)c1ccccc1-2 ?
inactive

Any idea what this test logged for N#C/C(=C\c1ccc(Br)cc1)n1nnc2c(F)cccc21 ?
inactive

Any idea what this test logged for COc1ccc(/C=C/C2C(C#N)=C(N)OC3=C2C(=O)CCC3)cc1 (stereo unspecified) ?
inactive

Any idea what this test logged for Cc1nn2c(/C=N/N=C(N)N)c(-c3ccc(Cl)c([N+](=O)[O-])c3)nc2s1 ?
inactive

Any idea what this test logged for CC(=O)c1c(Nc2cccc(F)c2)[nH]c2c(Cl)cc(Cl)c(Cl)c2c1=O ?
active

Any idea what this test logged for CCc1ccc(C(=O)/C=C/C23c4ccccc4C(c4ccccc42)C2C(=O)NC(=O)C23)cc1 (stereo unspecified) ?
inactive

Any idea what this test logged for O=c1ccccc(-c2ccc(Br)cc2)c1O ?
inactive

Any idea what this test logged for Cc1cc(Cl)ccc1OCc1nn2c(CCCCc3nnc4sc(COc5ccc(Cl)cc5C)nn34)nnc2s1 ?
inactive

----------
Test system: M14 melanoma
Test: NCI tumour cell line growth inhibition, 48 h
observed-property: TGI (nM)
Write it as a number; the unit nM goes unstated.

Find the recorded TGI belonging to COc1cccc2c1O/C(=C\c1ncc([N+](=O)[O-])n1C)C2=O and report it.
719

Find the recorded TGI belonging to Cc1cccc2c(NCCCN(C)C)c3c([N+](=O)[O-])ccc(C)c3nc12 and report it.
297

----------
Test system: MDA-MB-231 breast
Assay: NCI tumour cell line growth inhibition, 48 h
observed-property: GI50

Find the recorded GI50 belonging to O=C(O)c1ccc(NCc2nc3cc(Cl)c(Cl)cc3[nH]2)cc1 and report it.
> 100 µM

Find the recorded GI50 belonging to Clc1ccc(Cn2c(CN3CCCC3)nc3ccccc32)cc1 and report it.
18.8 µM

Find the recorded GI50 belonging to Cn1cc(-c2csc(-c3c[nH]c4ccccc34)n2)c2cnccc21 and report it.
1.67 µM

Find the recorded GI50 belonging to COc1ccc(C(=S)N(C)NC(=O)CC(=O)NN(C)C(=S)c2ccc(OC)cc2)cc1 and report it.
> 100 µM

Find the recorded GI50 belonging to CCN(CC)CC(O)CNc1c2ccc(Cl)cc2nc2ccc(OC)cc12 (stereo not given) and report it.
0.972 µM
